- System: BT-474
- ASSAY_COMMENT: Potentiation of lapatinib-induced growth inhibition of human BT474 cells at 10 uM after 72 hrs by cell titer-glo based luminescence assay
- Format: functional
- MEASUREMENT_PARAMETERS: BT-474, 72 h, read-out: GI
TEST_READOUT: inhibition of growth at 10 µM (%)
Give bare numbers, in %.

Observe how each entry below is paired with its result.
MOLECULE	inhibition of growth at 10 µM / %
COc1cc(/C=C/C(=O)NC(NC(=S)Nc2cccnc2)C2CC2)cc(OC)c1OC (stereo not drawn)	85.2
COc1cc(/C=C/C(=O)NC(CC(C)C)NC(=S)NC2CCCCC2)cc(OC)c1OC (stereo not drawn)	83.4
CNC(=S)NC(CC(C)C)NC(=O)/C=C/c1cc(OC)c(OC)c(OC)c1 (stereo not drawn)	79.8
Cc1ccccc1NC(=S)NC(CC(C)C)NC(=O)/C=C/c1ccccc1 (stereo not drawn)	81.6
COc1cc(/C=C/C(=O)NC(NC(=S)Nc2ccccc2C)C(C)(C)C)cc(OC)c1OC (stereo not drawn)	81.4

Consider the following items and state reported inhibition of growth at 10 µM for each.
1. O=C(/C=C/c1ccccc1)NC(NC(=S)Nc1ccccn1)C1CC1 (stereo not drawn)
2. CC(C)C(NC(=O)/C=C/c1ccccc1)NC(=S)Nc1ccccc1 (stereo not drawn)

Output:
[78.8, 82]

Respectfully, I request inhibition of growth at 10 µM for each entry included below.
1. COc1cc(/C=C/C(=O)NC(NC(=S)Nc2ccccc2)C(C)(C)C)cc(OC)c1OC (stereo not drawn)
2. COc1cc(/C=C/C(=O)NC(CC(C)C)NC(=S)Nc2ccccc2)cc(OC)c1OC (stereo not drawn)
3. COc1cc(/C=C/C(=O)NC(NC(=S)NC2CCCCC2)C(C)C)cc(OC)c1OC (stereo not drawn)
4. COc1cc(/C=C/C(=O)NC(CC(C)(C)C)NC(=S)Nc2ccccc2)cc(OC)c1OC (stereo not drawn)

Output:
83.2
76.6
82.2
90.9

Fill in inhibition of growth at 10 µM for each of the 5 molecules listed.
1. COc1cc(/C=C/C(=O)NC(NC(=O)Nc2ccccn2)C(C)C)cc(OC)c1OC (stereo not drawn)
2. CC(C)CC(NC(=O)/C=C/c1ccccc1)NC(=S)NC1CCCCC1 (stereo not drawn)
3. COc1cc(/C=C/C(=O)NC(CC(C)C)NC(=S)Nc2cccnc2)cc(OC)c1OC (stereo not drawn)
4. CC(C)(C)CC(NC(=O)/C=C/c1ccccc1)NC(=S)Nc1ccccc1 (stereo not drawn)
5. COc1cc(/C=C/C(=O)NC(CC(C)C)NC(=S)Nc2ccccn2)cc(OC)c1OC (stereo not drawn)

Output:
[86.2, 84, 79.1, 84.9, 87.8]

I'm hoping you can list inhibition of growth at 10 µM for every molecule here, please.
1. COc1cc(/C=C/C(=O)NC(NC(=S)Nc2ccccc2C)C2CC2)cc(OC)c1OC (stereo not drawn)
2. COc1cc(/C=C/C(=O)NC(NC(=S)Nc2ccccn2)C2CC2)cc(OC)c1OC (stereo not drawn)
3. COc1cc(/C=C/C(=O)NC(CC(C)(C)C)NC(=S)Nc2ccccn2)cc(OC)c1OC (stereo not drawn)
4. COc1cc(/C=C/C(=O)NC(CC(C)(C)C)NC(=S)Nc2cccnc2)cc(OC)c1OC (stereo not drawn)
5. CC(C)C(NC(=O)/C=C/c1ccccc1)NC(=S)NC1CCCCC1 (stereo not drawn)

Output:
[87.4, 87.8, 88.5, 89.9, 80.6]

Dear colleague, could you please provide inhibition of growth at 10 µM for the molecules listed below?
1. COc1ccc(NC(=S)NC(NC(=O)/C=C/c2cc(OC)c(OC)c(OC)c2)C(C)C)cc1 (stereo not drawn)
2. O=C(/C=C/c1ccccc1)NC(NC(=S)Nc1ccccc1)C1CC1 (stereo not drawn)

Output:
[78.5, 81.4]

* * *

- ASSAY_COMMENT: Growth inhibition of human BT/LapR1.0 cells at 10 uM after 72 hrs by cell titer-glo based luminescence assay
- MEASUREMENT_PARAMETERS: read-out: GI
Response key: Y means inhibition at 72 h, 10 µM >= 20%; N means inhibition at 72 h, 10 µM < 20%.

Previously resolved entries follow.
COMPOUND	CLASS_LABEL
COc1cc(/C=C/C(=O)NC(CC(C)C)NC(=S)Nc2ccccc2)cc(OC)c1OC (centres undefined)	N
COc1cc(/C=C/C(=O)NC(NC(=S)NC2CCCCC2)C(C)C)cc(OC)c1OC (centres undefined)	Y
COc1ccc(NC(=S)NC(NC(=O)/C=C/c2cc(OC)c(OC)c(OC)c2)C(C)C)cc1 (centres undefined)	N
COc1cc(/C=C/C(=O)NC(CC(C)(C)C)NC(=S)Nc2cccnc2)cc(OC)c1OC (centres undefined)	N
COc1cc(/C=C/C(=O)NC(NC(=S)Nc2cccnc2)C(C)(C)C)cc(OC)c1OC (centres undefined)	N

Task: Determine whether measured inhibition at 72 h, 10 µM meets or exceeds 20% for COc1cc(/C=C/C(=O)NC(NC(=S)Nc2ccccc2)C2CC2)cc(OC)c1OC (centres undefined)
Output: N

Task: # check: inhibition at 72 h, 10 µM of CC(C)(C)CC(NC(=O)/C=C/c1ccccc1)NC(=S)Nc1ccccc1 (centres undefined) is greater than or equal to 20%
Output: Y

Task: Answer whether inhibition at 72 h, 10 µM of COc1cc(/C=C/C(=O)NC(NC(=S)Nc2ccccc2)C(C)(C)C)cc(OC)c1OC (centres undefined) is greater than or equal to 20%.
Output: N

Task: Can COc1cc(/C=C/C(=O)NC(CC(C)C)NC(=S)Nc2ccccn2)cc(OC)c1OC (centres undefined) be said to have inhibition at 72 h, 10 µM at or above 20%?
Output: Y

* * *

- SUBJECT_OF_TEST: Chaperone protein DnaK (Escherichia coli) (UniProt P0A6Y8)
- ASSAY_COMMENT: Inhibition of Escherichia coli DnaK ATPase activity at 200 uM incubated on shaker for 10 mins followed by 30 mins incubation by malachite green reagent based colorimetric assay
Consider the following compounds; for each one, report its inhibition.

Sample answers from the record:
COMPOUND	SUBJECT_OF_TEST	inhibition
Cc1ccccc1NC(=S)NC(NC(=O)/C=C/c1ccccc1)C1CC1 (centres undefined)	Chaperone protein DnaK (Escherichia coli) (UniProt P0A6Y8)	65.4%
Cc1ccccc1NC(=S)NC(CC(C)C)NC(=O)/C=C/c1ccccc1 (centres undefined)	Chaperone protein DnaK (Escherichia coli) (UniProt P0A6Y8)	< 20%

Please go through the list and note inhibition for each compound.
1. O=C(/C=C/c1ccccc1)NC(NC(=S)Nc1ccccn1)C1CC1 (centres undefined)
2. COc1cc(/C=C/C(=O)NC(NC(=S)NC2CCCCC2)C(C)C)cc(OC)c1OC (centres undefined)
3. CC(C)(C)CC(NC(=O)/C=C/c1ccccc1)NC(=S)Nc1ccccc1 (centres undefined)
4. Cc1ccccc1NC(=S)NC(NC(=O)/C=C/c1ccccc1)C(C)(C)C (centres undefined)

Output:
1: < 20%; 2: < 20%; 3: < 20%; 4: < 20%

Dear colleague, could you send me inhibition for each of the items below? Thanks.
1. CC(C)CC(NC(=O)/C=C/c1ccccc1)NC(=S)NC1CCCCC1 (centres undefined)
2. COc1cc(/C=C/C(=O)NC(NC(=S)Nc2ccccc2)C2CC2)cc(OC)c1OC (centres undefined)
3. N#Cc1ccc(COC[C@H]2O[C@@H](n3c(NCc4ccc(Cl)c(Cl)c4)nc4c(N)ncnc43)[C@H](O)[C@@H]2O)cc1

Output:
1. 58.4%
2. 50.5%
3. 43%

Report inhibition for every entry below.
1. O=C(/C=C/c1ccccc1)NC(NC(=S)Nc1ccccc1)C1CC1 (centres undefined)
2. COc1cc(/C=C/C(=O)NC(CC(C)C)NC(=S)Nc2cccnc2)cc(OC)c1OC (centres undefined)
3. CC(C)(C)C(NC(=O)/C=C/c1ccccc1)NC(=S)NC1CCCCC1 (centres undefined)
4. COc1cc(/C=C/C(=O)NC(CC(C)C)NC(=S)Nc2ccccn2)cc(OC)c1OC (centres undefined)
5. COc1cc(/C=C/C(=O)NC(NC(=S)Nc2cccnc2)C(C)(C)C)cc(OC)c1OC (centres undefined)
6. COc1cc(/C=C/C(=O)NC(NC(=S)Nc2ccccc2C)C2CC2)cc(OC)c1OC (centres undefined)

Output:
["< 20%", "38.5%", "< 20%", "< 20%", "< 20%", "< 20%"]

* * *

- ASSAY_COMMENT: Growth inhibition of human BT474 cells at 10 uM after 72 hrs by cell titer-glo based luminescence assay
- Parameters: species or system BT-474
- MEASUREMENT_PARAMETERS: read-out: GI
Entry flag: true if inhibition at 72 h, 10 µM reaches 10%; false if it does not.

COMPOUND	CLASS_LABEL
COc1cc(/C=C/C(=O)NC(CC(C)C)NC(=S)Nc2ccccn2)cc(OC)c1OC (stereo unspecified)	true
COc1ccc(NC(=S)NC(NC(=O)/C=C/c2cc(OC)c(OC)c(OC)c2)C(C)C)cc1 (stereo unspecified)	true
O=C(/C=C/c1ccccc1)NC(NC(=S)Nc1ccccn1)C1CC1 (stereo unspecified)	false
CC(C)C(NC(=O)/C=C/c1ccccc1)NC(=S)Nc1ccccc1 (stereo unspecified)	false
COc1cc(/C=C/C(=O)NC(NC(=S)Nc2cccnc2)C(C)(C)C)cc(OC)c1OC (stereo unspecified)	true
COc1cc(/C=C/C(=O)NC(NC(=S)Nc2cccnc2)C2CC2)cc(OC)c1OC (stereo unspecified)	false

Task: Decide: inhibition at 72 h, 10 µM of COc1cc(/C=C/C(=O)NC(NC(=O)Nc2ccccc2)C(C)C)cc(OC)c1OC (stereo unspecified) >= 10%?
Output: false

Task: Check this compound for inhibition at 72 h, 10 µM at or above 10%: CC(C)(C)C(NC(=O)/C=C/c1ccccc1)NC(=S)NC1CCCCC1 (stereo unspecified)
Output: true

Task: Has CC(C)(C)C(NC(=O)/C=C/c1ccccc1)NC(=S)Nc1ccccc1 (stereo unspecified) a recorded inhibition at 72 h, 10 µM greater than or equal to 10%?
Output: false

Task: Determine whether this compound has inhibition at 72 h, 10 µM no lower than 10%: O=C(/C=C/c1ccccc1)NC(NC(=S)Nc1ccccc1)C1CC1 (stereo unspecified)
Output: false

Task: Decide: is the reported value of inhibition at 72 h, 10 µM for CC(C)(C)CC(NC(=O)/C=C/c1ccccc1)NC(=S)Nc1ccccc1 (stereo unspecified) equal to or greater than 10%?
Output: true

Task: Determine whether this compound has inhibition at 72 h, 10 µM no lower than 10%: COc1cc(/C=C/C(=O)NC(NC(=S)NC2CCCCC2)C(C)C)cc(OC)c1OC (stereo unspecified)
Output: true

Task: Tell me whether inhibition at 72 h, 10 µM is at least 10% here: CC(C)CC(NC(=O)/C=C/c1ccccc1)NC(=S)NC1CCCCC1 (stereo unspecified)
Output: true

Task: Identify whether the reported inhibition at 72 h, 10 µM of the following compound is 10% or greater: COc1cc(/C=C/C(=O)NC(CC(C)(C)C)NC(=S)Nc2ccccc2)cc(OC)c1OC (stereo unspecified)
Output: true

Task: Exam item: decide whether the reported inhibition at 72 h, 10 µM for COc1cc(/C=C/C(=O)NC(CC(C)C)NC(=S)NC2CCCCC2)cc(OC)c1OC (stereo unspecified) is at least 10%.
Output: true
